Hey, just so you know, these numbers are from the kinase profiling compilation of Christmann-Franck et al. (2016).

biological target: PKN1 (human); assay: radiometric filter-binding kinase assay, Kinase HotSpot; conditions: compound 0.5 µM; ATP 10 µM
QUANTITY: residual activity (%)
Numbers only, in %.

>  <COMPOUND_STRUCTURE_STRING>
Ic1cccc(CSc2nnc(-c3ccncc3)o2)c1

>  <residual activity, %>
98.6

$$$$
>  <COMPOUND_STRUCTURE_STRING>
COc1cc2ncnc(Nc3ccc(OCc4ccccc4)cc3)c2cc1OC

>  <residual activity, %>
101

$$$$
>  <COMPOUND_STRUCTURE_STRING>
O=C(c1cc2cc(O)ccc2[nH]1)c1cc2cc(O)ccc2[nH]1

>  <residual activity, %>
76.3

$$$$
>  <COMPOUND_STRUCTURE_STRING>
COc1ccc(S(=O)(=O)N(CCO)c2ccccc2CN(C)C/C=C/c2ccc(Cl)cc2)cc1

>  <residual activity, %>
110

$$$$
>  <COMPOUND_STRUCTURE_STRING>
Cn1c2ccccc2c2c3c(c4c5ccccc5n(CCC#N)c4c21)CNC3=O

>  <residual activity, %>
10.3

$$$$
>  <COMPOUND_STRUCTURE_STRING>
CN(C)c1ccc(/C=C2\C(=O)Nc3ccccc32)cc1

>  <residual activity, %>
98.4

$$$$
>  <COMPOUND_STRUCTURE_STRING>
N#Cc1c[nH]c2c[nH]/c(=N\Cc3cccnc3)cc2/c1=N\c1ccc(F)c(Cl)c1

>  <residual activity, %>
101

$$$$
>  <COMPOUND_STRUCTURE_STRING>
CO[C@@H]1[C@H](N(C)C(=O)c2ccccc2)C[C@H]2O[C@]1(C)n1c3ccccc3c3c4c(c5c6ccccc6n2c5c31)C(=O)NC4

>  <residual activity, %>
1.37

$$$$
>  <COMPOUND_STRUCTURE_STRING>
c1ccc2c(-c3ccncc3)c[nH]c2c1

>  <residual activity, %>
66.4

$$$$

Given the entry O=C1Nc2ccc(Br)cc2/C1=C\c1cc2c([nH]1)CCCC2 , report its measured residual activity.
91.7

---

Give measured residual activity for each item. Keep answers brief.
target: PRKD1 (human) (UniProt Q15139); assay: radiometric filter-binding kinase assay, Kinase HotSpot; settings: compound 0.5 µM; ATP 10 µM
Sequence (Q15139 whole entry, looked up): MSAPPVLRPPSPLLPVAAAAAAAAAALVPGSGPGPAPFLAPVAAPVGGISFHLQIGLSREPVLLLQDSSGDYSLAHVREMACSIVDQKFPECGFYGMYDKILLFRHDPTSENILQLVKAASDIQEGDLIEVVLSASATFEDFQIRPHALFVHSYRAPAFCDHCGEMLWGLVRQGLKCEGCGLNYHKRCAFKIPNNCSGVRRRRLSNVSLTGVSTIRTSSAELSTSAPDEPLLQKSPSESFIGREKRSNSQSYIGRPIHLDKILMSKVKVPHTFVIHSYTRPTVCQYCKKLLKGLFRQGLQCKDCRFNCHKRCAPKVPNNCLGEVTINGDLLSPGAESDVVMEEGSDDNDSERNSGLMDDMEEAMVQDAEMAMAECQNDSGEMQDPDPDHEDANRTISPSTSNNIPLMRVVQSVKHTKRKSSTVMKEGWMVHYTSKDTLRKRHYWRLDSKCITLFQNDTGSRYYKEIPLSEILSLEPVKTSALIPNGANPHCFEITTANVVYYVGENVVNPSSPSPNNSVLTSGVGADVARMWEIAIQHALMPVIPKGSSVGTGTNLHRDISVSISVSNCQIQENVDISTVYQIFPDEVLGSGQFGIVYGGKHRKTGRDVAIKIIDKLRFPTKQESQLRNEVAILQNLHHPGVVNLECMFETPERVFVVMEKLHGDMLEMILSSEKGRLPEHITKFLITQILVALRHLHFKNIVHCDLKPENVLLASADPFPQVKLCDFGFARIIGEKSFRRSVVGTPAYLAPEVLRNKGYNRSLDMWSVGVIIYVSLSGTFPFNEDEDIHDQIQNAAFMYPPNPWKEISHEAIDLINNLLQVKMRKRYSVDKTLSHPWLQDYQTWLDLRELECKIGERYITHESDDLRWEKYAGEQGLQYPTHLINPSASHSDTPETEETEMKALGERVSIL
Answers are plain numbers, in %.

>  <COMPOUND_STRUCTURE_STRING>
O=C1c2ccccc2-c2nc3nnnn3nc21

>  <residual activity (%)>
86.5

$$$$
>  <COMPOUND_STRUCTURE_STRING>
NC(=O)c1cccc(-c2cc(Nc3ccc(OC(F)(F)F)cc3)ncn2)c1

>  <residual activity (%)>
99.5

$$$$
>  <COMPOUND_STRUCTURE_STRING>
c1ccc2c(-c3ccncc3)c[nH]c2c1

>  <residual activity (%)>
95.5

$$$$
>  <COMPOUND_STRUCTURE_STRING>
COc1ccc2c(c1)c(C1=C(c3c[nH]c4ccccc34)C(=O)NC1=O)cn2CCCN(C)C

>  <residual activity (%)>
68.8

$$$$
>  <COMPOUND_STRUCTURE_STRING>
CN(C)c1ccc(/C=C2\C(=O)Nc3ccccc32)cc1

>  <residual activity (%)>
100

$$$$

Items follow; give residual activity for each.
1. COc1ccc2c(c1)/C(=C/c1cnc[nH]1)C(O)=N2
2. COc1cc2ncnc(Nc3ccc(OCc4ccccc4)cc3)c2cc1OC
3. N#C/C(=C\c1ccc(O)c(O)c1)C(=O)NCc1ccccc1

[47.9, 101, 92.5]

---

target: UniProt:Q96PY6; assay: radiometric filter-binding kinase assay, Kinase HotSpot; conditions: compound 0.5 µM; ATP 10 µM
Sequence (Q96PY6 whole entry, looked up): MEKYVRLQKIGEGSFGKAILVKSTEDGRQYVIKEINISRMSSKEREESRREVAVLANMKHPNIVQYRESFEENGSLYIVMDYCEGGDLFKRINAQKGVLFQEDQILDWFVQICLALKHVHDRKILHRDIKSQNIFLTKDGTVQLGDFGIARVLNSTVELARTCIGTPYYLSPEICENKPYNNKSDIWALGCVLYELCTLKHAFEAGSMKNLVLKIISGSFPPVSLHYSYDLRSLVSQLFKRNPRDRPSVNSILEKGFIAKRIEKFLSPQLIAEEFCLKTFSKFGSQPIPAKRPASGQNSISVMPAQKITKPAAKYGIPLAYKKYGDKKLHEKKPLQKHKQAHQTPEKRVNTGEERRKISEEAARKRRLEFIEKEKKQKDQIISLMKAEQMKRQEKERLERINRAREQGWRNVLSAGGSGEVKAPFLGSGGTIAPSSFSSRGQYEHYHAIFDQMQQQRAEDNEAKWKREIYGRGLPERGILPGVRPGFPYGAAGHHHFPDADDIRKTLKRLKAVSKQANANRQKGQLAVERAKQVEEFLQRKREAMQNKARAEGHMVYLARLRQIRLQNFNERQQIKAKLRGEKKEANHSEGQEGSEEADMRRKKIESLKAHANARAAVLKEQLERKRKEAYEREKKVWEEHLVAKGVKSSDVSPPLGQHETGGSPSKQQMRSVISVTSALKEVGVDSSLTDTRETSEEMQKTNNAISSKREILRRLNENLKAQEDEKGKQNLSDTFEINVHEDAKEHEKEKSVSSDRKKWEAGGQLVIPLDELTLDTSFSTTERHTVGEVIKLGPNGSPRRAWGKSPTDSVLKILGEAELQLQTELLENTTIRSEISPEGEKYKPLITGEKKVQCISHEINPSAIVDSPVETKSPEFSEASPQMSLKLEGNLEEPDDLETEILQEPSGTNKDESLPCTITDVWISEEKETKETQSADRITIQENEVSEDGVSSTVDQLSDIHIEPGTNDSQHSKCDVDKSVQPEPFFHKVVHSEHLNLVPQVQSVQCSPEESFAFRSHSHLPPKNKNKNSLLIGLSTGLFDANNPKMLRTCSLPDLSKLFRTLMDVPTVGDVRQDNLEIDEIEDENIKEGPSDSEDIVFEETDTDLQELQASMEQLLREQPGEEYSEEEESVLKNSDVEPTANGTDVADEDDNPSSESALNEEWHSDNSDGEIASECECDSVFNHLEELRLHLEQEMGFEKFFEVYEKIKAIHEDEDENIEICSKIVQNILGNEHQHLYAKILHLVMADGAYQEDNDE
Kindly state residual activity for each of the entries shown.
Answers are plain numbers, in %.

Please review the following examples before continuing.
>  <COMPOUND_STRUCTURE_STRING>
Cc1cccc(-c2nc(C(C)(C)C)[nH]c2-c2ccc3c(c2)OCO3)n1

>  <SUBJECT_OF_TEST>
UniProt:Q96PY6

>  <TEST_VALUE>
78.9

$$$$
>  <COMPOUND_STRUCTURE_STRING>
NC(=O)c1cccc(-c2cc(Nc3ccc(OC(F)(F)F)cc3)ncn2)c1

>  <SUBJECT_OF_TEST>
UniProt:Q96PY6

>  <TEST_VALUE>
89.6

$$$$
>  <COMPOUND_STRUCTURE_STRING>
CN(C)CCCn1cc(C2=C(c3c[nH]c4ccccc34)C(=O)NC2=O)c2ccccc21

>  <SUBJECT_OF_TEST>
UniProt:Q96PY6

>  <TEST_VALUE>
92.5

$$$$
>  <COMPOUND_STRUCTURE_STRING>
COc1ccc(C(=O)Nc2sc3c(c2C(N)=O)CCCC3)cc1OC

>  <SUBJECT_OF_TEST>
UniProt:Q96PY6

>  <TEST_VALUE>
89.8

$$$$

I would be grateful if you could provide residual activity for each of the following entries.
1. c1ccc2c(-c3ccncc3)c[nH]c2c1
2. CCCCc1c(-c2ccc(OC)cc2)[nH]c2nccnc12

1: 101; 2: 86.9

Each of the following entries comes with a recorded value; kindly state residual activity for each.
1. O=C1Nc2ccc(Br)cc2/C1=C\c1cc2c([nH]1)CCCC2
2. COc1ccc2c(c1)/C(=C/c1cnc[nH]1)C(O)=N2
3. COc1ccc(Cl)cc1NC(=O)Nc1cc(C)nc2ccccc12
4. N#C/C(=C\c1ccc(O)c(O)c1)C(=O)NCc1ccccc1
5. CO[C@@H]1[C@H](N(C)C(=O)c2ccccc2)C[C@H]2O[C@]1(C)n1c3ccccc3c3c4c(c5c6ccccc6n2c5c31)C(=O)NC4
6. C[C@@H]1CCN(C(=O)CC#N)C[C@@H]1N(C)c1ncnc2[nH]ccc12
7. CS(=O)(=O)CCNCc1ccc(-c2ccc3ncnc(Nc4ccc(OCc5cccc(F)c5)c(Cl)c4)c3c2)o1

[94.6, 84.4, 96.3, 97.3, 66.2, 84.6, 71.8]

Okay, here is my list. What is residual activity for each of these?
1. COc1cc2ncnc(Nc3ccc(Oc4ccccc4)cc3)c2cc1OC
2. COc1ccc(S(=O)(=O)N(CCO)c2ccccc2CN(C)C/C=C/c2ccc(Cl)cc2)cc1

1: 101; 2: 104

---

target: UniProt P54756; experiment: radiometric filter-binding kinase assay, Kinase HotSpot; conditions: compound 0.5 µM; ATP 10 µM
Sequence (P54756 whole entry, looked up): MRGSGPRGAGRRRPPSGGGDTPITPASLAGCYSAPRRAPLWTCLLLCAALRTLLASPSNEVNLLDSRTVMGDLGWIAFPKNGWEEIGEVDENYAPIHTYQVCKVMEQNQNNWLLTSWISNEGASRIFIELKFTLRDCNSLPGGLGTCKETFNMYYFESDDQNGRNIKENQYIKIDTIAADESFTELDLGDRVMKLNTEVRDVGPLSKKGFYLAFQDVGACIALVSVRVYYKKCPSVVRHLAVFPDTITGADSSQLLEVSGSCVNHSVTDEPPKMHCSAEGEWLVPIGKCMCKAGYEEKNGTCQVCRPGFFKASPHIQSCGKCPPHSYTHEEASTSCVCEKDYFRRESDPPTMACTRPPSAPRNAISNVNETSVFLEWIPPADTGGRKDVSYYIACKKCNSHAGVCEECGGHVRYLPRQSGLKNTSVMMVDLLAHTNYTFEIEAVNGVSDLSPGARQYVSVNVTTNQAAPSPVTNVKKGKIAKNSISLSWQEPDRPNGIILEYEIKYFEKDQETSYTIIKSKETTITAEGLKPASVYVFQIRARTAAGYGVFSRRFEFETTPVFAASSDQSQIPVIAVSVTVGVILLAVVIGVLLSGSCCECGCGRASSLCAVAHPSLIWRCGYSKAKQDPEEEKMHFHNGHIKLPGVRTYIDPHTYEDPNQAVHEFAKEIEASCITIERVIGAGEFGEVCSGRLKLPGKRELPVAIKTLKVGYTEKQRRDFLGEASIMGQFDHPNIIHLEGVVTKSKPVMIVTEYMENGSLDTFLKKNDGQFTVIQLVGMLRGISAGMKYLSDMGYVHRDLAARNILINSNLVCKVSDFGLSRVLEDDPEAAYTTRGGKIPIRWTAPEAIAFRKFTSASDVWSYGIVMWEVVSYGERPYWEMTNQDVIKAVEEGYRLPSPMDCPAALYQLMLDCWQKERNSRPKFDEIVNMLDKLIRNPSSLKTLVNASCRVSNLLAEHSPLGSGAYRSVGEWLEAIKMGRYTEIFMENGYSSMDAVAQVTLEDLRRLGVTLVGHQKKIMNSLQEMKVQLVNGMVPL
QUANTITY: residual activity

Would you please look over these solved cases?
>  <COMPOUND_STRUCTURE_STRING>
Cn1c2ccccc2c2c3c(c4c5ccccc5n(CCC#N)c4c21)CNC3=O

>  <SUBJECT_OF_TEST>
UniProt P54756

>  <residual activity>
88.2%

$$$$
>  <COMPOUND_STRUCTURE_STRING>
C[C@@H]1CCN(C(=O)CC#N)C[C@@H]1N(C)c1ncnc2[nH]ccc12

>  <SUBJECT_OF_TEST>
UniProt P54756

>  <residual activity>
99.9%

$$$$
>  <COMPOUND_STRUCTURE_STRING>
N#Cc1c[nH]c2c[nH]/c(=N\Cc3cccnc3)cc2/c1=N\c1ccc(F)c(Cl)c1

>  <SUBJECT_OF_TEST>
UniProt P54756

>  <residual activity>
90.6%

$$$$
>  <COMPOUND_STRUCTURE_STRING>
COc1ccc(Cl)cc1NC(=O)Nc1cc(C)nc2ccccc12

>  <SUBJECT_OF_TEST>
UniProt P54756

>  <residual activity>
123%

$$$$
>  <COMPOUND_STRUCTURE_STRING>
COc1ccc2c(c1)/C(=C/c1cnc[nH]1)C(O)=N2

>  <SUBJECT_OF_TEST>
UniProt P54756

>  <residual activity>
86.2%

$$$$
>  <COMPOUND_STRUCTURE_STRING>
COc1cc(Nc2c(C#N)cnc3cc(OCCCN4CCN(C)CC4)c(OC)cc23)c(Cl)cc1Cl

>  <SUBJECT_OF_TEST>
UniProt P54756

>  <residual activity>
37.1%

$$$$
>  <COMPOUND_STRUCTURE_STRING>
COc1cc2ncnc(Nc3ccc(OCc4ccccc4)cc3)c2cc1OC

>  <SUBJECT_OF_TEST>
UniProt P54756

>  <residual activity>
105%

$$$$
>  <COMPOUND_STRUCTURE_STRING>
COc1ccc(S(=O)(=O)N(CCO)c2ccccc2CN(C)C/C=C/c2ccc(Cl)cc2)cc1

>  <SUBJECT_OF_TEST>
UniProt P54756

>  <residual activity>
98.1%

$$$$
>  <COMPOUND_STRUCTURE_STRING>
O=C1c2ccccc2-c2nc3nnnn3nc21

>  <SUBJECT_OF_TEST>
UniProt P54756

>  <residual activity>
81.5%

$$$$
>  <COMPOUND_STRUCTURE_STRING>
COc1ccc(C(=O)Nc2sc3c(c2C(N)=O)CCCC3)cc1OC

>  <SUBJECT_OF_TEST>
UniProt P54756

>  <residual activity>
104%

$$$$

Answer for every listed entry: what is its residual activity? The entries follow.
1. COc1ccc2c(c1)c(C1=C(c3c[nH]c4ccccc34)C(=O)NC1=O)cn2CCCN(C)C
2. NC(=O)c1cccc(-c2cc(Nc3ccc(OC(F)(F)F)cc3)ncn2)c1
3. CN(C)c1ccc(/C=C2\C(=O)Nc3ccccc32)cc1
4. Cc1nc(-c2ccccc2)c(-c2ccncc2)o1
5. CC(C)(C)c1cc(C=C(C#N)C#N)cc(Br)c1O
6. N#C/C(=C\c1ccc(O)c(O)c1)C(=O)NCc1ccccc1
7. COc1cc2ncnc(Nc3ccc(Oc4ccccc4)cc3)c2cc1OC
8. Ic1cccc(CSc2nnc(-c3ccncc3)o2)c1

["87.2%", "103%", "109%", "91.4%", "106%", "103%", "85.3%", "100%"]
